test: HILIC, Waters ACQUITY UPLC BEH Amide, 100 × 2.1 mm, 1.7 µm; A: water + 0.125% formic acid + 10 mM ammonium formate; B: 5% water + 95% acetonitrile + 0.125% formic acid + 10 mM ammonium formate; gradient (min/%B) 0/100 2/100 7.7/70 9.5/40 10.25/30 12.75/100 17/100; conditions: stereoisomer not certain
reported endpoint: LC retention time (min)
Number in min, nothing else.

Need LC retention time of COC(=O)CCc1ccc(OCC(O)CNC(C)C)cc1 (stereo unspecified) [Esmolol] , thanks. 3.13

---

assay: HILIC, Waters ACQUITY UPLC BEH Amide, 100 × 2.1 mm, 1.7 µm; A: water + 0.125% formic acid + 10 mM ammonium formate; B: 5% water + 95% acetonitrile + 0.125% formic acid + 10 mM ammonium formate; gradient (min/%B) 0/100 2/100 7.7/70 9.5/40 10.25/30 12.75/100 17/100; settings: stereoisomer not certain
reported endpoint: LC retention time (min)
Number in min, nothing else.

O=C(O)C=Cc1ccc(O)cc1; 1.38

Need LC retention time of NC(Cc1ccc(OP(=O)(O)O)cc1)C(=O)O (stereo unspecified) , thanks. 9.72

---

assay: HILIC, Waters ACQUITY UPLC BEH Amide, 100 × 2.1 mm, 1.7 µm; A: water + 0.125% formic acid + 10 mM ammonium formate; B: 5% water + 95% acetonitrile + 0.125% formic acid + 10 mM ammonium formate; gradient (min/%B) 0/100 2/100 7.7/70 9.5/40 10.25/30 12.75/100 17/100; conditions: stereoisomer not certain
I would appreciate it if you labelled entries t when LC retention time is 2 min or higher, otherwise f.

Nc1ncnc2c1ncn2C1OC(CSCCC(N)C(=O)O)C(O)C1O (centres undefined); t
CC(=O)OC12COC1CC(O)C1(C)C(=O)C(O)C3=C(C)C(OC(=O)C(O)C(NC(=O)OC(C)(C)C)c4ccccc4)CC(O)(C(OC(=O)c4ccccc4)C21)C3(C)C (centres undefined); f
Cc1[nH]c(=O)c(C#N)cc1-c1ccncc1; f

For this compound, is measured LC retention time 2 min or higher? CC(=O)NCCCCCCNC(C)=O f

---

experiment: HILIC, Waters ACQUITY UPLC BEH Amide, 100 × 2.1 mm, 1.7 µm; A: water + 0.125% formic acid + 10 mM ammonium formate; B: 5% water + 95% acetonitrile + 0.125% formic acid + 10 mM ammonium formate; gradient (min/%B) 0/100 2/100 7.7/70 9.5/40 10.25/30 12.75/100 17/100; conditions: stereoisomer not certain
I would appreciate it if you labelled entries fulfilled when LC retention time is 2 min or higher, otherwise not fulfilled.

Please review the entries below; each comes with its answer.
OCc1cc(C(O)CNCCCCCCOCCCCc2ccccc2)ccc1O (stereo not drawn); fulfilled
CC12CCC(=O)C=C1CCC1C2C(=O)CC2(C)C1CCC2(O)C(=O)CO (stereo not drawn); not fulfilled
COC(=O)C1=C(C)NC(C)=C(C(=O)OC2CCCN(Cc3ccccc3)C2)C1c1cccc([N+](=O)[O-])c1 (stereo not drawn); not fulfilled
CC(=O)CCCCn1c(=O)c2c(ncn2C)n(C)c1=O; not fulfilled
COC(=O)N1CCN(C(=O)Cc2ccc(Cl)c(Cl)c2)C(CN2CCCC2)C1 (stereo not drawn); fulfilled

For this molecule, is measured LC retention time 2 min or higher? C[Si](C)(C)CCC(=O)O fulfilled

For this molecule, is measured LC retention time 2 min or higher? NC(C(=O)NC1C(=O)N2C(C(=O)O)=C(Cl)CSC12)c1ccccc1 (stereo not drawn) fulfilled

For this molecule, is measured LC retention time 2 min or higher? CN1CCN(CCCN2c3ccccc3Sc3ccc(C(F)(F)F)cc32)CC1 fulfilled

---

assay: HILIC, Waters ACQUITY UPLC BEH Amide, 100 × 2.1 mm, 1.7 µm; A: water + 0.125% formic acid + 10 mM ammonium formate; B: 5% water + 95% acetonitrile + 0.125% formic acid + 10 mM ammonium formate; gradient (min/%B) 0/100 2/100 7.7/70 9.5/40 10.25/30 12.75/100 17/100; details: stereoisomer not certain
reported endpoint: LC retention time (min)
Number in min, nothing else.

CN1CCC2(c3cccc(O)c3)Cc3nc4ccccc4cc3CC2C1 (stereo not given); 5.11
CC(OP(=O)(O)O)C(N)C(=O)O (stereo not given) [o-Phosphothreonine]; 9.74
Cc1occc(=O)c1O [Maltol]; 1.32
O=CC(O)C(O)C(O)C(O)CO (stereo not given) [Glucose]; 1.84

Need LC retention time of N[C@H]1[C@@H](OP(=O)(O)O)O[C@H](CO)[C@H](O)[C@@H]1O [alpha-Galactosamine-1-phosphate] , thanks. 7.06

Need LC retention time of NC(Cc1c[nH]c2ccccc12)C(=O)O (stereo not given) [Tryptophan] , thanks. 6.92

Need LC retention time of C=C1CC2C(CCC3(C)C(=O)CCC23)C2(C)C=CC(=O)C=C12 (stereo not given) [Exemestane] , thanks. 0.98

---

assay: HILIC, Waters ACQUITY UPLC BEH Amide, 100 × 2.1 mm, 1.7 µm; A: water + 0.125% formic acid + 10 mM ammonium formate; B: 5% water + 95% acetonitrile + 0.125% formic acid + 10 mM ammonium formate; gradient (min/%B) 0/100 2/100 7.7/70 9.5/40 10.25/30 12.75/100 17/100; conditions: stereoisomer not certain
reported endpoint: LC retention time (min)
Number in min, nothing else.

O=c1ccc2ccccc2o1; 1.08

Need LC retention time of CC1C(=O)Nc2ccccc21 (stereo not given) , thanks. 1.07

Need LC retention time of CC(C)CC(=O)OC(CC(=O)[O-])C[N+](C)(C)C (stereo not given) , thanks. 5.36

Need LC retention time of COc1ccc(-c2coc3cc(O)ccc3c2=O)cc1 , thanks. 1.18

---

experiment: HILIC, Waters ACQUITY UPLC BEH Amide, 100 × 2.1 mm, 1.7 µm; A: water + 0.125% formic acid + 10 mM ammonium formate; B: 5% water + 95% acetonitrile + 0.125% formic acid + 10 mM ammonium formate; gradient (min/%B) 0/100 2/100 7.7/70 9.5/40 10.25/30 12.75/100 17/100; details: stereoisomer not certain
reported endpoint: LC retention time (min)
Number in min, nothing else.

COCCCOc1ccnc(CS(=O)c2nc3ccccc3[nH]2)c1C (stereo not drawn); 2.44
CC(=O)NC(CCCN)C(=O)O (stereo not drawn); 8.31
Cc1cn(C2CC(O)C(CO)O2)c(=O)[nH]c1=O (stereo not drawn); 2.57
CCC(C)C(NC(=O)C(C)N)C(=O)O (stereo not drawn); 7.83

Need LC retention time of CC(C)(C)NC(=O)C1CC2CCCCC2CN1CC(O)C(Cc1ccccc1)NC(=O)C(CC(N)=O)NC(=O)c1ccc2ccccc2n1 (stereo not drawn) , thanks. 2.85

Need LC retention time of CC(C)=CCN1CCC2(C)c3cc(O)ccc3CC1C2C (stereo not drawn) , thanks. 2.65

Need LC retention time of CNc1ccccc1 , thanks. 1.06

Need LC retention time of O=C(O)C1CCCCN1 (stereo not drawn) , thanks. 7.83

Need LC retention time of COC1C=COC2(C)Oc3c(C)c(O)c4c(O)c(c5c(nc6cc(C)ccn65)c4c3C2=O)NC(=O)C(C)=CC=CC(C)C(O)C(C)C(O)C(C)C(OC(C)=O)C1C (stereo not drawn) , thanks. 1.18

Need LC retention time of COc1cc(-c2ccc(=O)[nH]n2)ccc1OC(F)F , thanks. 1.19

Need LC retention time of OCC1OC(OCC2OC(OC3(CO)OC(CO)C(O)C3O)C(O)C(O)C2O)C(O)C(O)C1O (stereo not drawn) , thanks. 9.17

Need LC retention time of CNC(CC(=O)O)C(=O)O (stereo not drawn) , thanks. 2.53

---

List of LC retention time values.
test: HILIC, Waters ACQUITY UPLC BEH Amide, 100 × 2.1 mm, 1.7 µm; A: water + 0.125% formic acid + 10 mM ammonium formate; B: 5% water + 95% acetonitrile + 0.125% formic acid + 10 mM ammonium formate; gradient (min/%B) 0/100 2/100 7.7/70 9.5/40 10.25/30 12.75/100 17/100; conditions: stereoisomer not certain
Number in min, nothing else.

These solved cases illustrate the format of a correct answer.
CN(C)C(N)=NCCCC(N)C(=O)O (stereo not given) [ADMA]; 8.55
CCOC(=O)COc1cc(-c2nn(C)c(OC(F)F)c2Cl)c(F)cc1Cl [Pyrafluefen-ethyl]; 1.02
O=C(O)CCCCC1SCC2NC(=O)NC21 (stereo not given) [Biotin]; 2.85

Need LC retention time of OC1CCCCC1N1CCC(c2ccccc2)CC1 (stereo not given) [Vesamicol] , thanks. 2.65

Need LC retention time of OCCOCCN1CCN(C2=Nc3ccccc3Sc3ccccc32)CC1 [Quetiapine] , thanks. 2.54

Need LC retention time of OCC1OC(OC2C(O)OC(CO)C(O)C2O)C(O)C(O)C1O (stereo not drawn) [2-alpha-Mannobiose] , thanks. 9.47

All figures here come from the RepoRT retention time repository.
